Experiment: qHTS assay to identify small molecule that activate the aryl hydrocarbon receptor (AhR) signaling pathway - cell viability counter screen (AID 743086); note: nearly all actives have a fitted effect of over 45% in size
Settings: HepG2-AhR-luc viability, CellTiter-Fluor, 24 h; series mostly up to 70.3 µM
Text: U.S. Tox21 Program National Center for Advancing Translational Sciences [NCATS] NIH Chemical Genomics Center [NCGC] U.S. Environmental Protection Agency [EPA] National Institutes of Environmental Health Sciences [NIEHS] National Toxicology Program [NTP] U.S. Food and Drug Administration [FDA] Tox21 Assay overview: The Aryl hydrocarbon Receptor (AhR), a member of the family of basic helix-loop-helix transcription factors, is crucial to adaptive responses to environmental changes. […]
Records with an inconclusive call do not appear. Calls of active or inactive are those of the source. Calls come from the whole dose curve; as a rule, active = well fitted cell-killing curve with a large enough effect in the repeat runs; inconclusive = weak or mixed curves, or effect the other way; inactive = flat fitted curve, though single readings scatter.
Mark one answer only. Choices: active, inactive

Asked: Just curious, what result did O.O.O.O.O.O.O=S(=O)([O-])[O-].[Ni+2] get here?
Given back: inactive

Asked: Consider next the compound Brc1ccc(Oc2ccc(Br)cc2Br)c(Br)c1 in the same way.
Given back: inactive

Asked: Consider next the compound Cc1ccc2cc3c(ccc4ccccc43)c3c2c1CC3 in the same way.
Given back: inactive

Asked: Consider next the compound C[N+]1(C)[C@@H]2CC[C@H]1CC(OC(=O)C(CO)c1ccccc1)C2 (some centres not stated) in the same way.
Given back: inactive

Asked: Consider next the compound CC(C)Br in the same way.
Given back: inactive

Asked: Consider next the compound CCCCCON=O in the same way.
Given back: inactive

Asked: Consider next the compound CNC(=O)/C=C(\C)OP(=O)(OC)OC in the same way.
Given back: inactive

Asked: Consider next the compound CCC[CH2][Sn]([CH2]CCC)([CH2]CCC)[O][Sn]([CH2]CCC)([CH2]CCC)[CH2]CCC in the same way.
Given back: active

Asked: Consider next the compound [F][Sn]([c]1ccccc1)([c]1ccccc1)[c]1ccccc1 in the same way.
Given back: active

Asked: Consider next the compound S=C=Nc1ccccc1 in the same way.
Given back: inactive

Asked: Consider next the compound O=[N+]([O-])c1cccc2cccc([N+](=O)[O-])c12 in the same way.
Given back: inactive

Asked: Consider next the compound O=S1(=O)OCC2C(CO1)C1(Cl)C(Cl)=C(Cl)C2(Cl)C1(Cl)Cl (configuration not stated) in the same way.
Given back: inactive

* * *

assay: Caspase-3/7 induction in HepG2 cells by small molecules, qHTS cell viability counter screen (AID 1346981); settings: CellTiter-Fluor fluorescence, 17 h; series mostly up to 92.4 µM; note: nearly all actives have a fitted effect of over 30% in size
Results filed as inconclusive are left out. Active and inactive are the calls of the source. Calls come from the whole dose curve; as a rule, active = well fitted cell-killing curve with a large enough effect in the repeat runs; inconclusive = weak or mixed curves, or effect the other way; inactive = flat fitted curve, though single readings scatter.
Mark one answer only. Choices: true (active), false (inactive)

Asked: Just curious, what result did c1ccc(Nc2ccc(Nc3ccccc3)cc2)cc1 get here?
Given back: false

Asked: Consider next the compound COC(=O)c1ccccc1S(=O)(=O)NC(=O)Nc1nc(C)nc(OC)n1 in the same way.
Given back: false

Asked: Consider next the compound CC#C[C@]1(O)CC[C@H]2[C@@H]3C[C@H](C)C4=CC(=O)CC[C@]4(C)[C@H]3CC[C@@]21C in the same way.
Given back: false

Asked: Consider next the compound COC(=O)N(OC)c1ccccc1COc1ccn(-c2ccc(Cl)cc2)n1 in the same way.
Given back: true

Asked: Consider next the compound N#Cc1sc2c(=O)c3ccccc3c(=O)c=2sc1C#N in the same way.
Given back: true

Asked: Consider next the compound CCOP(=O)(Sc1ccccc1)Sc1ccccc1 in the same way.
Given back: false

Asked: Consider next the compound CC(C)c1c(CN(C)C(C)Cc2ccccc2)n(C)n(-c2ccccc2)c1=O (stereo not given) in the same way.
Given back: false

Asked: Consider next the compound [F][Sn]([c]1ccccc1)([c]1ccccc1)[c]1ccccc1 in the same way.
Given back: true

Asked: Consider next the compound C#CCO in the same way.
Given back: false

Asked: Consider next the compound O=[N+]([O-])C(Br)Br in the same way.
Given back: false

Asked: Consider next the compound CC(C)Br in the same way.
Given back: false

Asked: Consider next the compound O=C(O)[C@H](O)[C@@H](O)C(=O)O in the same way.
Given back: false

Asked: Consider next the compound CC(C)=CCN1CC[C@@]2(C)c3cc(O)ccc3C[C@@H]1[C@@H]2C in the same way.
Given back: false

Asked: Consider next the compound C=CCBr in the same way.
Given back: false

Asked: Consider next the compound ClCBr in the same way.
Given back: false

Asked: Consider next the compound [O]=[Cr][O][Cr]=[O] in the same way.
Given back: false

Asked: Consider next the compound O=c1c2ccccc2c(=O)c2c1cc(Cl)c1[nH]c3c([nH]c12)c(Cl)cc1c(=O)c2ccccc2c(=O)c13 in the same way.
Given back: false

Asked: Consider next the compound CCNS(=O)(=O)C(F)(F)C(F)(F)C(F)(F)C(F)(F)C(F)(F)C(F)(F)C(F)(F)C(F)(F)F in the same way.
Given back: false

Asked: Consider next the compound CCN1CCC2(CC1)COc1cc3c(cc12)N(C(=O)c1ccc(-c2ccc(-c4nnc(C)o4)cc2C)cc1)CC3 in the same way.
Given back: true

Asked: Consider next the compound CC(Cc1ccc(OCC(=O)O)cc1)NCC(O)c1csc(C(F)(F)F)n1 (stereo not given) in the same way.
Given back: false

Asked: Consider next the compound BrCC(Br)(Br)Br in the same way.
Given back: false

Asked: Consider next the compound CC(Cl)CCl (stereo not given) in the same way.
Given back: false

Asked: Consider next the compound CC1(C)C(C=C(Cl)Cl)C1C(=O)OC(C#N)c1ccc(F)c(Oc2ccccc2)c1 (stereo not given) in the same way.
Given back: false

Asked: Consider next the compound CSC(=O)c1c(C(F)F)nc(C(F)(F)F)c(C(=O)SC)c1CC(C)C in the same way.
Given back: false

Asked: Consider next the compound O.O.O.O.O.O.O.O=S(=O)([O-])[O-].[Co+2] in the same way.
Given back: false

* * *

assay: qHTS assay for small molecule disruptors of the mitochondrial membrane potential - cell viability (AID 720634); conditions: HepG2 viability, ATP luminescence (CellTiter-Glo), 1 h; series mostly up to 83.2 µM; note: nearly all actives have a fitted effect of over 20% in size
Results filed as inconclusive are left out. The source made the active and inactive calls. The call rests on the fitted dose curve.
Mark one answer only. Choices: active, inactive

Asked: Just curious, what result did CCC[CH2][Sn]([CH2]CCC)([CH2]CCC)[O][Sn]([CH2]CCC)([CH2]CCC)[CH2]CCC get here?
Given back: active

Asked: Consider next the compound CCn1cc[n+](C)c1 (tested in a mixture with another compound) in the same way.
Given back: inactive

Asked: Consider next the compound c1ccc(Nc2ccc(Nc3ccccc3)cc2)cc1 in the same way.
Given back: active

Asked: Consider next the compound CC1CN1 (stereo not drawn) in the same way.
Given back: inactive

Asked: Consider next the compound O=[N+]([O-])c1ccc(Cl)c(Cl)c1Cl in the same way.
Given back: inactive

Asked: Consider next the compound Cc1cnc2c(C(=O)O)c(Cl)ccc2c1 in the same way.
Given back: inactive

Asked: Consider next the compound C=CC(=C)C in the same way.
Given back: inactive

Asked: Consider next the compound Cc1c([N+](=O)[O-])c(C)c([N+](=O)[O-])c(C(C)(C)C)c1[N+](=O)[O-] in the same way.
Given back: inactive

Asked: Consider next the compound O=C(N[C@H]1N=C(c2ccccc2F)c2cccc3c2N(CC3)C1=O)c1cc2ccccc2[nH]1 in the same way.
Given back: inactive

Asked: Consider next the compound ClCBr in the same way.
Given back: inactive

Asked: Consider next the compound COC(=O)c1ccccc1S(=O)(=O)NC(=O)Nc1nc(C)nc(OC)n1 in the same way.
Given back: inactive

Asked: Consider next the compound Nc1cc(Cl)ccc1Cl in the same way.
Given back: inactive

Asked: Consider next the compound CN1[C@@H]2CC[C@H]1CC(O)C2 (stereo partly drawn) in the same way.
Given back: inactive

* * *

Biological target: Thyrotropin receptor (Homo sapiens)
Test: qHTS assay to identify small molecule antagonists of the thyroid stimulating hormone receptor (TSHR) signaling pathway (AID 1259385); note: nearly all actives have a fitted effect of over 20% in size
Details: TSHR-HEK293 cAMP HTRF, TSH-stimulated antagonist mode; series mostly up to 92.4 µM
Experimental: U.S. Tox21 Program National Center for Advancing Translational Sciences [NCATS] NIH Chemical Genomics Center [NCGC] U.S. Environmental Protection Agency [EPA] National Institutes of Environmental Health Sciences [NIEHS] National Toxicology Program [NTP] […] Tox21 Assay Protocol Summary: TSHR-Hek293 cells were dispensed at 800 cells/4uL/well in 1536-well white plates using a Multidrop dispenser. […] The fluorescence intensity in the plates was measured using an Envision plate reader. […]
Results filed as inconclusive are left out. Activity calls are given as the source filed them. Calls follow the shape of the full dose curve.
Mark one answer only. Choices: active, inactive

Asked: Just curious, what result did C=CCOC(=O)c1ccccc1N get here?
Given back: inactive

Asked: Consider next the compound CCOC(=O)Cc1ccccc1 in the same way.
Given back: inactive

Asked: Consider next the compound COc1cnc(OC)n2nc(NS(=O)(=O)c3c(OCC(F)F)cccc3C(F)(F)F)nc12 in the same way.
Given back: inactive

Asked: Consider next the compound CCOP(=S)(OCC)Oc1cc(C)nc(N(CC)CC)n1 in the same way.
Given back: active

Asked: Consider next the compound N#CC(C#N)=NNc1cccc(Cl)c1 in the same way.
Given back: inactive

Asked: Consider next the compound CC#C[C@]1(O)CC[C@H]2[C@@H]3C[C@H](C)C4=CC(=O)CC[C@]4(C)[C@H]3CC[C@@]21C in the same way.
Given back: inactive
